// provenance: the supplement of paper PMC12855868

B1: library; numbered along this chain (parent)
chain: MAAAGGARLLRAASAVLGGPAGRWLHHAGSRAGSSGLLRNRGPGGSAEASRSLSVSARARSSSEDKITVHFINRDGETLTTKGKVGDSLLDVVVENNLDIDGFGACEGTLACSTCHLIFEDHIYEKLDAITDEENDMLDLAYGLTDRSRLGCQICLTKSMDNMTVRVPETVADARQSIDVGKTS

Variants of: B1
Assay: scaled log2 fold change in cell abundance, elesclomol vs control (0 = silent mean, 1 = nonsense mean) (scaled log2 ratio); higher = higher viability under elesclomol (loss of FDX1 cuproptosis function);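 further: variant abundance is its share of total variant reads in each endpoint sample, from next-generation sequencing of the integrated ORF PCR-amplified out of genomic DNA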
Conditions: with HEK293T FDX1 KO; elesclomol 40 nM; glucose 10 mM; 11 days
The following variants are listed with their measured scaled log2 fold change values.
Please respond with just the number, no unit label.

Specify reported scaled log2 fold change for the variant shown: S30A
-0.0965

Give scaled log2 fold change for the following variant: R8K
-0.152

***
Return scaled log2 fold change for the following variant: K66A
0.00324

Give scaled log2 fold change for M160Y
0.713

Determine from records and report scaled log2 fold change for L79Y
0.278

Entry K66W needs its scaled log2 fold change filled in; supply it.
-0.676

Supply measured scaled log2 fold change of G86Y in your reply.
0.586
